assay: DNDI: Cytotoxicity against human MRC-5 lung fibroblast cells.; conditions: IC50
measurementLabel: IC50

compound	IC50
COC(=O)c1ccc2c(c1)C(C)(C)C(/C=C/c1c(C)[nH]c3ccccc13)=[N+]2C	> 4.17 µM

State, in one line, measured IC50 of CC[n+]1c(/C=C/c2c[nH]c3ccccc23)ccc2cc(C)ccc21 3.71 µM

State, in one line, measured IC50 of O=c1c(Oc2ccccc2Br)coc2cc(O)ccc12 > 41.7 µM

State, in one line, measured IC50 of Cc1cc(-c2ccco2)c(C#N)c(SCC(=O)c2ccc(O)c(O)c2)n1 > 41.7 µM

State, in one line, measured IC50 of CC(C)CC(=O)NC(=C(Cl)Cl)S(=O)(=O)c1ccccc1 > 4.17 µM

State, in one line, measured IC50 of N=c1n(Cc2ccccc2)c2ccccc2n1CC(O)c1ccc(Cl)cc1 (stereo unspecified) > 20.8 µM
